Ref: patent US20190127480A1

- assaySystem: T1, Soluble heterodimeric CD3 protein (hCD3-epsilon/hCD3-delta) with either a human Fc tag (hFcΔAdp/hFc) or a … (human, UniProt P07766 23-126; P04234 22-105)
- T1 construct: also called hCD3ε/δ; not shown: Fc tag: human (hFcΔAdp/hFc)
- T1 sequence (P07766 23-126 limits assumed, stated change not applied, chain 1 of 2): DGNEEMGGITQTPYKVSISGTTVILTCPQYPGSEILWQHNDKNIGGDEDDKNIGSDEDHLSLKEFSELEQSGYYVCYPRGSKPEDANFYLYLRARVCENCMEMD
- T1 sequence (P04234 22-105 limits assumed, stated change not applied, chain 2 of 2): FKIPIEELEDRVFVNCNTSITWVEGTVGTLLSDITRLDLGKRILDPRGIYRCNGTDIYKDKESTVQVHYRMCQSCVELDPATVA
- protocolText: SPR Biacore 25C antibody-capture
So I've got a bunch of binders here, and I need their T½ values.
Answers are plain numbers, in min.

Report T½ for each item below.
1. H1H5771P (antibody, human IgG1, V domains shown, H1H: human IgG1 Fc; divalent) VH: EVQLVESGGGLVQPGRSLRLSCAASGFSFDNYAMHWVRQAPGQGLEWVSGISWNSGSRDYADSVKGRFTISRDNARNSLFLQMNSLSNEDTAMYYCAKDKSGYGSYFYGMDVWGQGTTVTVSS VL: EIVLTQSPGTLSLSPGDRATLSCRASQSIRNIYLAWYQQKPGQAPRLLIHGASTRATGIPDRFSGSGSGTDFTLTISRLEPEDFAVYYCQQRVSLPYTFGQGTKLEIK
2. H1H2712N (antibody, human IgG1, V domains shown, H1H: human IgG1 Fc; divalent) VH: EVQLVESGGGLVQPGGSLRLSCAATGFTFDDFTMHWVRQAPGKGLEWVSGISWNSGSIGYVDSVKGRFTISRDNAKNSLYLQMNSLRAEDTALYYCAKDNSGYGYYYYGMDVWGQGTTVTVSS VL: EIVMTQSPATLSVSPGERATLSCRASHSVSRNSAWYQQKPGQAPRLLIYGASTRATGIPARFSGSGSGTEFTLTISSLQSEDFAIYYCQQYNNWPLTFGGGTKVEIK
3. H1H5781P (antibody, human IgG1, V domains shown, H1H: human IgG1 Fc; divalent) VH: EVQLVESGGGLVQPGRSLRLSCAASGFTFDDFTMHWVRQAPGKGLEWVSDISWNSGSIDYADSVKGRFTISRDNARNSLFLQMSSLRTEDTASYYCIKDKSGYGSYNYGLDVWGQGTTVTVSS VL: EIVLTQSPGTLSLSPGDRATLSCRASQSVSSIYLAWYQQKPGQAPRLLIHGASTRATGIPDRFSGSGSGTDFTLTISRLEPEDFALYYCHQRVSSPYTFGQGTKLEIK

stdout:
1. 18
2. 43
3. 23
